# TDCC Average EC50 [M], OVCAR8 cells, human T cells values compiled below
target-entity: human mesothelin (MSLN) (human) (UniProt Q13421)
Sequence (Q13421 296-606 limits assumed): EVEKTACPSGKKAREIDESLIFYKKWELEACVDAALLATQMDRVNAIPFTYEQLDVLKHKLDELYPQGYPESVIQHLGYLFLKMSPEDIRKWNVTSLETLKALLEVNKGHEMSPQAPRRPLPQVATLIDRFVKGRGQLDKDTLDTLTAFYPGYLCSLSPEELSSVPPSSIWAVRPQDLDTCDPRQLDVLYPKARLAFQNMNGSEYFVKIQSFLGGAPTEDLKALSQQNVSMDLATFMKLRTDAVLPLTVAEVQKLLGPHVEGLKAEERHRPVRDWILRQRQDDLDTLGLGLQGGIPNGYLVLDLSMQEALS
run-description: cell-based or functional assay
Please reply with the bare figure in M and do not write the unit itself.

Example cases with answers are listed next.
MSLN targeting trispecific protein 2C2 (protein, part only; not given: Albumin and CD3 binders, linkers, part only) chain, part: QVQLVESGGGLVQAGESRRLSCAVSGDTSKFKAVGWYRQAPGAQRELLAWINNSGVGNTAESVKGRFTISRDNAKNTVYLQMNRLTPEDTDVYYCRFYRRFGINKNYWGQGTQVTVSSHHHHHH
9.5e-09
MSLN targeting trispecific protein 2A4 (protein, part only; not given: Albumin and CD3 binders, linkers, part only) chain, part: QVQLVESGGGLVQARGSLRLSCTASGRTIGINDMAWYRQAPGNQRELVATITKGGTTDYADSVDGRFTISRDNAKNTVYLQMNSLKPEDTAVYYCNTKRREWAKDFEYWGQGTQVTVSSHHHHHH
1.9e-09
MSLN targeting trispecific protein 10B3 (protein, part only; not given: Albumin and CD3 binders, linkers, part only) chain, part: QVQLVESGGGLVQAGGSLRLSCAASGSTSSINTMYWYRQAPGKERELVAFISSGGSTNVRDSVKGRFSVSRDSAKNIVYLQMNSLKPEDTAVYYCNTYIPYGGTLHDFWGQGTQVTVSSHHHHHH
1.4e-12
MSLN targeting trispecific protein 2A2 (protein, part only; not given: Albumin and CD3 binders, linkers, part only) chain, part: QVQLVESGGGLVQAGGSLTLSCAASGSTFSIRAMRWYRQAPGTERDLVAVIYGSSTYYADAVKGRFTISRDNAKNTLYLQMNNLKPEDTAVYYCNADTIGTARDYWGQGTQVTVSSHHHHHH
1.6e-12
MSLN targeting trispecific protein 3G1 (protein, part only; not given: Albumin and CD3 binders, linkers, part only) chain, part: QVRLVESGGGLVQAGESLRLSCAASGRPFSINTMGWYRQAPGKQRELVASISSSGDFTYTDSVKGRFTISRDNAKNTVYLQMNSLKPEDTAVYYCNARRTYLPRRFGSWGQGTQVTVSSHHHHHH
4e-09
MSLN targeting trispecific protein 9H2 (protein, part only; not given: Albumin and CD3 binders, linkers, part only) chain, part: QVQLVESGGGLVQAGGSLRLSCAASGSTSSINTMYWYRQAPGKERELVAFISSGGSTNVRDSVKGRFSVSRDSAKNIVYLQMNSLTPEDTAVYYCNTYIPLRGTLHDYWGQGTQVTVSSHHHHHH
1.1e-12

Record summary for MSLN targeting trispecific protein 7F1 (protein, part only; not given: Albumin and CD3 binders, linkers, part only) chain, part: QVQLVESGGGLVQAGGSLRLSCAASAIGSINSMSWYRQAPGKQREPVAVITDRGSTSYADSVKGRFTISRDNAKNTVYLQMNSLKPEDTAIYTCHVIADWRGYWGQGTQVTVSSHHHHHH : reported TDCC Average EC50 [M], OVCAR8 cells, human T cells = 2.4e-12

TDCC Average EC50 [M], OVCAR8 cells, human T cells for MSLN targeting trispecific protein 11F3 (protein, part only; not given: Albumin and CD3 binders, linkers, part only) chain, part: QVQLVESGGGLVQAGGSLRLSCVASGRTSTIDTMYWHRQAPGNERELVAYVTSRGTSNVADSVKGRFTISRDNAKNTAYLQMNSLKPEDTAVYYCSVRTTSYPVDFWGQGTQVTVSSHHHHHH is 2.2e-12

Per the record, MSLN targeting trispecific protein 5C2 (protein, part only; not given: Albumin and CD3 binders, linkers, part only) chain, part: QVQLVESGGGLVQAGGSLRLSCAASGSTSSINTMYWFRQAPGEERELVATINRGGSTNVRDSVKGRFSVSRDSAKNIVYLQMNRLKPEDTAVYYCNTYIPYGGTLHDFWGQGTQVTVSSHHHHHH has TDCC Average EC50 [M], OVCAR8 cells, human T cells of 1.5e-12

The reported value for MSLN targeting trispecific protein 4A2 (protein, part only; not given: Albumin and CD3 binders, linkers, part only) chain, part: QVQLVESGGGLVQAGGSLRLSCAASGSTFGINAMGWYRQAPGKQRELVAVISRGGSTNYADSVKGRFTISRDNAENTVSLQMNTLKPEDTAVYFCNARTYTRHDYWGQGTQVTVSSHHHHHH in terms of TDCC Average EC50 [M], OVCAR8 cells, human T cells is 1.7e-09

According to the records, this binder MSLN targeting trispecific protein 3B4 (protein, part only; not given: Albumin and CD3 binders, linkers, part only) chain, part: QVQLVESGGGLVQAGGSLRLSCVASGSTSNINNMRWYRQAPGKERELVAVITRGGYAIYLDAVKGRFTISRDNANNAIYLEMNSLKPEDTAVYVCNADRVEGTSGGPQLRDYFGQGTQVTVSSHHHHHH displays TDCC Average EC50 [M], OVCAR8 cells, human T cells of 1.8e-12
